From: patent US20230233569A1

Catalogue of pIC50 values
Measured target: NRAS WT (Homo sapiens, UniProt P01111+P62937)
Sequence (P01111 whole entry): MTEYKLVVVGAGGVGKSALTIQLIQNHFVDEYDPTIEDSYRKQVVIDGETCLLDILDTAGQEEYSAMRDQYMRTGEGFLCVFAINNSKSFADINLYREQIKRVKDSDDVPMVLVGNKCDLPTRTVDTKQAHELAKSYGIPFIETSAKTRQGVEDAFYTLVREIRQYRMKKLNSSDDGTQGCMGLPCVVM
Sequence (P62937 whole entry): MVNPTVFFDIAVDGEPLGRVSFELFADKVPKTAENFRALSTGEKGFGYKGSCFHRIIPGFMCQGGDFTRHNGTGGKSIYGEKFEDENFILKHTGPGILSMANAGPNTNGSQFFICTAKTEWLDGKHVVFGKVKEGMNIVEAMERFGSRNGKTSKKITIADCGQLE
Assay summary: Disruption of BRAF RBD interaction with Ras (FRET / MOA assay, with Cyclophilin A)
Assay type: biochemical
Protocol conditions: NRAS WT; read-out: NRAS WT FRET data IC50
pIC50: −log10 of the molar value.
Reported endpoint: pIC50

Molecule: CCn1c(-c2cccnc2[C@H](C)OC)c2c3cc(ccc31)-c1csc(n1)C[C@H](NC(=O)[C@H](C(C)C)N(C)C(=O)N1CCC13CN(C)C3)C(=O)N1CCC[C@H](N1)C(=O)OCC(C)(C)C2
Reported endpoint: pIC50
Value: 7.00 to 8.00

Molecule: CCn1c(-c2cccnc2[C@H](C)OC)c2c3cc(ccc31)-c1csc(n1)[C@@H](O)[C@H](NC(=O)[C@H](C(C)C)N(C)C(=O)N1CC(N(C)C)C1)C(=O)N1CCC[C@H](N1)C(=O)OCC(C)(C)C2 (atropisomer, axis not shown)
Reported endpoint: pIC50
Value: 6.00 to 7.00

Molecule: CCn1c(-c2cccnc2[C@H](C)OC)c2c3cc(ccc31)-c1csc(n1)C[C@H](NC(=O)[C@H](C(C)C)N(C)C(=O)N1CC(OC)C1)C(=O)N1CC[C@H](C)[C@H](N1)C(=O)OCC(C)(C)C2
Reported endpoint: pIC50
Value: 6.00 to 7.00
